These entries and their values trace back to ChEMBL document CHEMBL1255250.

Tested on: Candida albicans
EXPERIMENTAL_DETAILS: Microbicidal activity against Candida albicans 16820 using PIPES buffer in presence of NaCl
Format: functional, organism-based
Active and inactive are the calls of the source. The rule behind the calls is not given here. Where a SMILES comes first, the peptide text is derived from it. Bridges are numbered along the chain shown (N, C = ends).
Choose one outcome from this list and give only that: active, inactive

See these solved cases before continuing.
CC[C@H](C)[C@@H]1NC(=O)[C@@H]2CSSC[C@H](NC(=O)[C@H](CCCNC(=N)N)NC(=O)[C@@H]3CSSC[C@H](NC1=O)C(=O)N[C@@H]([C@H](C)O)C(=O)N[C@@H](CCCNC(=N)N)C(=O)NCC(=O)N[C@H](Cc1ccccc1)C(=O)N3)C(=O)N[C@@H](CC(C)C)C(=O)N[C@@H]1CSSC[C@@H](NC(=O)[C@H](C(C)C)NC(=O)CNC(=O)[C@H](CCCNC(=N)N)NC(=O)[C@H](CCCNC(=N)N)NC1=O)C(=O)N[C@@H](CCCNC(=N)N)C(=O)N2; inactive
CC(C)C[C@H](NC(=O)[C@H](CCCNC(=N)N)NC(=O)CNC(=O)CNC(=O)[C@@H](N)CCCNC(=N)N)C(=O)N[C@H]1CSSC[C@@H](C(=O)N[C@H](C(=O)NCC(=O)N[C@@H](CCCNC(=N)N)C(N)=O)C(C)C)NC(=O)[C@H](C(C)C)NC(=O)[C@@H]2CSSC[C@H](NC(=O)[C@H](Cc3ccc(O)cc3)NC1=O)C(=O)N[C@@H](CCCNC(=N)N)C(=O)N[C@@H](CCCNC(=N)N)C(=O)N[C@@H](CCCNC(=N)N)C(=O)N[C@@H](Cc1ccccc1)C(=O)N2; active
CC[C@H](C)[C@@H]1NC(=O)C2CSSCC(NC(=O)[C@H](CCCNC(=N)N)NC(=O)[C@@H]3CSSC[C@H](NC1=O)C(=O)N[C@@H]([C@@H](C)O)C(=O)N[C@@H](CCCNC(=N)N)C(=O)NCC(=O)N[C@@H](Cc1ccccc1)C(=O)N3)C(=O)N[C@@H]([C@@H](C)CC)C(=O)N[C@H]1CSSC[C@H](NC(=O)[C@H](Cc3ccccc3)NC(=O)CNC(=O)[C@H](CCCNC(=N)N)NC(=O)[C@H]([C@@H](C)O)NC1=O)C(=O)N[C@@H](CCCNC(=N)N)C(=O)N2 (single isomer, unassigned); inactive

We next turn to a different compound, shown below.
Could you please tell me the result logged for CC(C)C[C@@H]1NC(=O)[C@@H]2CSSC[C@H](NC(=O)[C@H](CCCNC(=N)N)NC(=O)[C@@H]3CSSC[C@H](NC1=O)C(=O)N[C@@H](CCCNC(=N)N)C(=O)N[C@@H](CCCNC(=N)N)C(=O)NCC(=O)N[C@@H](C(C)C)C(=O)N3)C(=O)N[C@@H](CC(C)C)C(=O)N[C@H]1CSSC[C@H](NC(=O)[C@H](C(C)C)NC(=O)CNC(=O)[C@H](CCCNC(=N)N)NC(=O)[C@H](CCCNC(=N)N)NC1=O)C(=O)N[C@@H](CCCNC(=N)N)C(=O)N2 (cyclo(CLCRRGVCRCLCRRGVCR); disulfide 1-10, 3-8, 12-17) in this assay?
inactive

* * *

Tested on: Candida albicans
EXPERIMENTAL_DETAILS: Microbicidal activity against Candida albicans 16820 in presence of 0.8 mM Magnesium ions
Format: functional, organism-based
Activity calls are given as the source filed them. No cut-off for these calls is given here. Where a SMILES comes first, the peptide text is derived from it. Bridges are numbered along the chain shown (N, C = ends).
ATTRIBUTE_MEASURED: Activity

CC(C)C[C@@H]1NC(=O)[C@@H]2CSSC[C@H](NC(=O)[C@H](CCCNC(=N)N)NC(=O)[C@@H]3CSSC[C@H](NC1=O)C(=O)N[C@@H](CCCNC(=N)N)C(=O)N[C@@H](CCCNC(=N)N)C(=O)NCC(=O)N[C@@H](C(C)C)C(=O)N3)C(=O)N[C@@H](CC(C)C)C(=O)N[C@H]1CSSC[C@H](NC(=O)[C@H](C(C)C)NC(=O)CNC(=O)[C@H](CCCNC(=N)N)NC(=O)[C@H](CCCNC(=N)N)NC1=O)C(=O)N[C@@H](CCCNC(=N)N)C(=O)N2 (cyclo(CLCRRGVCRCLCRRGVCR); disulfide 1-10, 3-8, 12-17); inactive
CC[C@H](C)[C@@H]1NC(=O)[C@@H]2CSSC[C@H](NC(=O)[C@H](CCCNC(=N)N)NC(=O)[C@@H]3CSSC[C@H](NC1=O)C(=O)N[C@@H]([C@H](C)O)C(=O)N[C@@H](CCCNC(=N)N)C(=O)NCC(=O)N[C@H](Cc1ccccc1)C(=O)N3)C(=O)N[C@@H](CC(C)C)C(=O)N[C@@H]1CSSC[C@@H](NC(=O)[C@H](C(C)C)NC(=O)CNC(=O)[C@H](CCCNC(=N)N)NC(=O)[C@H](CCCNC(=N)N)NC1=O)C(=O)N[C@@H](CCCNC(=N)N)C(=O)N2; inactive
CC[C@H](C)[C@@H]1NC(=O)C2CSSCC(NC(=O)[C@H](CCCNC(=N)N)NC(=O)[C@@H]3CSSC[C@H](NC1=O)C(=O)N[C@@H]([C@@H](C)O)C(=O)N[C@@H](CCCNC(=N)N)C(=O)NCC(=O)N[C@@H](Cc1ccccc1)C(=O)N3)C(=O)N[C@@H]([C@@H](C)CC)C(=O)N[C@H]1CSSC[C@H](NC(=O)[C@H](Cc3ccccc3)NC(=O)CNC(=O)[C@H](CCCNC(=N)N)NC(=O)[C@H]([C@@H](C)O)NC1=O)C(=O)N[C@@H](CCCNC(=N)N)C(=O)N2 (single isomer, unassigned); inactive
